# maps each entry to its fraction unbound at 6 h, 1 μM
Assay: Plasma protein binding (equilibrium dialysis), mouse
Assay type: in vitro ADME
Conditions: pH 7.4, 6 hours dialysis, read-out: Mean % Bound Mouse (converted)
Returns: the value as a bare number; no unit string appended.

Known fraction unbound at 6 h, 1 μM results, listed for orientation:
molecule	recorded-value
CC(C)(O)Cc1nnc(-c2cnn3ccc(N4CCC[C@@H]4c4cc(F)ccc4F)nc23)[nH]1	0.0887
OC1CC(c2nnc(-c3cnn4ccc(N5CCC[C@@H]5c5cc(F)ccc5F)nc34)[nH]2)C1 (stereo partly shown)	0.0998
CC(C)(O)c1nnc(-c2cnn3ccc(N4CCC[C@@H]4c4cc(F)ccc4F)nc23)[nH]1	0.0929
C[C@H](N)c1nnc(-c2cnn3ccc(N4CCC[C@@H]4c4cc(F)ccc4F)nc23)[nH]1	0.244

Q: Quick one: fraction unbound at 6 h, 1 μM for C[C@H](O)c1nnc(-c2cnn3ccc(N4CCC[C@@H]4c4cc(F)ccc4F)nc23)[nH]1 ?
Ans: 0.0443

Q: Quick one: fraction unbound at 6 h, 1 μM for NC1(c2nnc(-c3cnn4ccc(N5CCC[C@@H]5c5cc(F)ccc5F)nc34)[nH]2)CCC1 ?
Ans: 0.0817

Q: Quick one: fraction unbound at 6 h, 1 μM for OC1(c2nnc(-c3cnn4ccc(N5CCC[C@@H]5c5cc(F)ccc5F)nc34)[nH]2)CCC1 ?
Ans: 0.0397

This collection of values is drawn from patent US20210395256A1.
